- Type: in vivo
- protocol-conditions: human, plasma, oral, 180 mg
endpoint-name: Cmax (nM)

>>> print(df.to_string())
                                   compound  unit_info  value_measured
0  NC[C@@](O)(c1ccc(Cl)cc1)c1ccc(-c2cn[nH]c2)cc1 [AT13148]         nM             383
